target: MCL-1/Bim interaction (recombinant human MCL-1 protein, residues 171-327; biotinylated human Bim peptide, residues 51-76) (Homo sapiens (Human), UniProt Q07820); assay: MCL-1/Bim Binding AlphaLISA Assay; settings: 0.0625 nM 6xHis-Mcl-1 (171-327), 0.0625 nM biotinylated-Bim peptide
Sequence (Q07820 171-327): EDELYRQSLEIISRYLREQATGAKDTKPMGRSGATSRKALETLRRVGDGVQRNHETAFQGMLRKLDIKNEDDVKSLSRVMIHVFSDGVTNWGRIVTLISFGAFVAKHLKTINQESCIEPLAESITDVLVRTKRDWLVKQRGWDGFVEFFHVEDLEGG
Hi there, I'd appreciate the recorded pIC50 for every entry that follows.
// field semantics: pIC50 = negative decimal log of concentration (mol/L)

Exercise: Using known records, supply pIC50 for CO[C@H]1/C=C/C[C@H](C)C[S@@](=O)(NC(=O)N[C@H]2C[C@H](O)C2)=NC(=O)c2ccc3c(c2)N(C[C@@H]2CC[C@H]21)C[C@@]1(CCCc2cc(Cl)ccc21)CO3 [Example 452]
Solution: 10.35

Exercise: Give reported pIC50 value for CO[C@H]1/C=C/C[C@H](C)C[S@@](=O)(NC(=O)N2C[C@H](OC)[C@H]2C)=NC(=O)c2ccc3c(c2)N(C[C@@H]2CC[C@H]21)C[C@@]1(CCCc2cc(Cl)ccc21)CO3 [Example 250]
Solution: 10.54

Exercise: Quickly give me recorded pIC50 for CO[C@H]1/C=C/C[C@H](C)C[S@@](=O)(NC(=O)c2cc(CN3CCN(C(C)C)[C@H](C)C3)n(C)c2)=NC(=O)c2ccc3c(c2)N(C[C@@H]2CC[C@H]21)C[C@@]1(CCCc2cc(Cl)ccc21)CO3 [Example 284]
Solution: 10.21

Exercise: Given CO[C@H]1/C=C/C[C@H](C)C[S@@](=O)(NC(=O)c2cc3c(s2)CCOC3)=NC(=O)c2ccc3c(c2)N(C[C@@H]2CC[C@H]21)C[C@@]1(CCCc2cc(Cl)ccc21)CO3 [Example 429] , respond with its pIC50.
Solution: 9.89

Exercise: Please look at this compound and report its pIC50: COC1CN(C(=O)N[S@@]2(=O)=NC(=O)c3ccc4c(c3)N(C[C@@H]3CC[C@H]3[C@@H](OC)/C=C/C[C@H](C)C2)C[C@@]2(CCCc3cc(Cl)ccc32)CO4)C1 [Example 362]
Solution: 10.62

* * *

Assign pEC50 to each entry below.
system: SKBR3 cells; assay: SKBR3 Cell Viability Assay (CellTiter Glo); assay type: cell-based; settings: 72 hours, CellTiter Glo luminescence, read-out: MCL-1 CV SKBR3 EC50
Please report pEC50 as the negative decimal logarithm of the molar concentration, giving only the number.

Exercise: Provide one value: measured pEC50 of CCC(=O)N[S@]1(=O)=NC(=O)c2ccc3c(c2)N(C[C@@H]2CC[C@H]2[C@@H](OC)CCCCC1)C[C@@]1(CCCc2cc(Cl)ccc21)CO3 [Example 17]
Solution: 5.00

Exercise: Give the reported pEC50 for this molecule. CCC(=O)N[S@@]1(=O)=NC(=O)c2ccc3c(c2)N(C[C@@H]2CC[C@H]2[C@@H](O)/C=C/CCC1)C[C@@]1(CCCc2cc(Cl)ccc21)CO3 [Example 62]
Solution: 5.61

Exercise: Specify measured pEC50 for CO[C@H]1/C=C/CCC[S@](N)(=O)=NC(=O)c2ccc3c(c2)N(C[C@@H]2CC[C@H]21)C[C@@]1(CCCc2cc(Cl)ccc21)CO3 [Example 6] .
Solution: 5.06

Exercise: Name the recorded pEC50 of the molecule listed here: COc1nn(C)cc1C(=O)N[S@@]1(=O)=NC(=O)c2ccc3c(c2)N(C[C@@H]2CC[C@H]2[C@@H](OC)/C=C/[C@H](S(=O)(=O)c2ccc(C)cc2)[C@H](C)C1)C[C@@]1(CCCc2cc(Cl)ccc21)CO3 [Example 377]
Solution: 7.47

Exercise: Tell me pEC50 reported for CCC(=O)N[S@]1(=O)=NC(=O)c2ccc3c(c2)N(C[C@@H]2CC[C@H]2[C@@H](OCCN2CCOCC2)/C=C/CCC1)C[C@@]1(CCCc2cc(Cl)ccc21)CO3 [Example 66]
Solution: 5.23
